The origin of these recorded values is patent US7214714B2.

Attribute: melting point

{"columns": ["Molecule", "melting point"],
 "data": [
  ["OCCN1CCN(c2ccc(N/C=N/O)cc2Br)CC1 [Compound 82]", "190 to 192 °C (dec.)"],
  ["O/N=C/Nc1ccc(N2CCSCC2)cc1 [Compound 1]", "138 to 141 °C"],
  ["O/N=C/Nc1ccc(N2CC=CCC2)c(Cl)c1 [Compound 16]", "135 to 137.5 °C"],
  ["O/N=C/Nc1ccc(N2CCCCCCC2)c(F)c1 [Compound 28]", "137 to 139 °C"],
  ["Cc1cc(N2CCN(C3CCCCC3)CC2)ccc1N/C=N/O.Cl [Compound 111]", "230 to 232 °C (dec.)"],
  ["Cl.OCCN1CCN(c2ccc(N/C=N/O)cc2Cl)CC1 [Compound 81]", "200 to 202 °C (dec.)"],
  ["O/N=C/Nc1ccc(N2CCCCCCC2)cc1 [Compound 27]", "170 to 173 °C"]
]}
